Below is a list of entries, each paired with its recorded survival at 192 h value.
PROCEDURE_SUMMARY: in vivo
Parameters: species or system female CDF1 hybrid mice
EXPERIMENTAL_CONDITIONS: mouse, iv, 25 mg/kg
Dear colleague, please return just the value in %, with no unit written.

| MOL_SMILES | READOUT_UNITS | survival at 192 h |
| --- | --- | --- |
| Cc1cnc(NCCCN(C)C)c2c1[nH]c1ccc(O)cc12 | % | 100 |

Proceeding to the next molecule to report its survival at 192 h.
Exam item: What value of measured survival at 192 h is listed for CCN(CC)CCCNc1ncc(C)c2[nH]c3ccc(O)cc3c12 ?
Marked response: 100
